Where do these numbers come from? They come from patent US10954232B2.

target: ALK5 kinase (Homo sapiens)
Construct: GST; purchased Thermo Fisher Scientific Solutions
Sequence (P36897 34-503): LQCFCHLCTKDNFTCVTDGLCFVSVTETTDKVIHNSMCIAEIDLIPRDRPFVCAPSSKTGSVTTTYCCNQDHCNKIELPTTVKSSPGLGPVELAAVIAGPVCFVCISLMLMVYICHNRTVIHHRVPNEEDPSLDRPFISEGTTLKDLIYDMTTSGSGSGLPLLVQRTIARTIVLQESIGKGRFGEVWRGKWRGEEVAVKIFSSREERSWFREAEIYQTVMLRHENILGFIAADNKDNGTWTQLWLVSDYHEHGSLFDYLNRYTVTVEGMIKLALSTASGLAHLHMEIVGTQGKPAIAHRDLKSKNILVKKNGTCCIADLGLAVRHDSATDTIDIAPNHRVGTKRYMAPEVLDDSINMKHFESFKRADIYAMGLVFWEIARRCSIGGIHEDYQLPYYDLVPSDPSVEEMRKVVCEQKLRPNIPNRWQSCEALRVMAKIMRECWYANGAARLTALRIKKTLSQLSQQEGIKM
assayExplanation: Activity inhibition test on ALK5 enzyme (LanthaScreen Eu binding kinase assay)
assaySetup: kinase tracer 178, 60 minutes at room temperature
observedProperty: IC50

In the examples that follow, each entry is paired with its recorded IC50.
compound="Cc1cccc(-n2nc(C(=O)Nc3ccc(S(=O)(=O)C4CC4)cc3)cc2-c2ccc3nonc3c2)n1 [Example 218]" observedproperty=IC50 reportedmeasurement="10 to 100 nM"
compound="Cc1cccc(-n2nc(C(=O)Nc3ccc(S(C)(=O)=O)cc3)cc2-c2ccnc3ccccc23)n1 [Example 211]" observedproperty=IC50 reportedmeasurement="< 10 nM"
compound="Cc1cccc(-n2nc(C(=O)Nc3ccc4c(c3)OCCO4)cc2-c2ccc3nccnc3c2)n1 [Example 169]" observedproperty=IC50 reportedmeasurement="10 to 100 nM"
compound="Cc1cccc(-n2nc(C(=O)Nc3ccc(F)cc3Br)cc2-c2ccc3ncnn3c2)n1 [Example 142]" observedproperty=IC50 reportedmeasurement="10 to 100 nM"

// query # return recorded IC50 for input Cc1cccc(-n2nc(C(=O)NCc3ccc(F)cc3)cc2-c2ccc3ncnn3c2)n1 [Example 157]
// result 10 to 100 nM

// query Provide IC50 value for the following compound: CN(C)c1ccc(NC(=O)c2cc(-c3ccc4nccnc4c3)n(-c3cccc(C(F)(F)F)n3)n2)cc1 [Example 206]
// result > 100 nM

// query Specify IC50 for COc1ccc(NC(=O)c2cc(-c3ccc4ncnn4c3)n(-c3cccc(C)n3)n2)cn1 [Example 154] and stop.
// result ~10 nM

// query For the compound COCCOc1ccc(NC(=O)c2cc(-c3ccc4nccnc4c3)n(-c3cccc(C)n3)n2)cc1 [Example 167] , report IC50.
// result ≤ 100 nM

// query Return IC50 for the following compound: Cc1cccc(-n2nc(C(=O)Nc3cccc(F)c3)cc2-c2ccc3nccnc3c2)n1 [Example 184]
// result 10 to 100 nM

// query Consider the compound C=Cc1ccc(NC(=O)c2cc(-c3ccc4ncnn4c3)n(-c3cccc(C)n3)n2)cc1 [Example 119] . State its measured IC50.
// result < 10 nM

// query Specify measured IC50 for Cc1cccc(-n2nc(C(=O)Nc3cccc(Cl)c3)cc2-c2ccc3ncsc3c2)n1 [Example 32] .
// result 10 to 100 nM

// query Report measured IC50; entry is CC(=O)c1ccc(NC(=O)c2cc(-c3ccc4nccnc4c3)n(-c3cccc(C)n3)n2)cc1 [Example 178]
// result 10 to 100 nM

// query State, in one line, measured IC50 of COc1ccc(NC(=O)c2cc(-c3ccc4nccnc4c3)n(-c3cccc(C)n3)n2)cn1 [Example 192]
// result 10 to 100 nM

// query Assign IC50 to the following record: Cc1cccc(-n2nc(C(=O)Nc3ccccc3F)cc2-c2cc3cnccc3s2)c1 [Example 227]
// result ~100 nM

// query Tell me its IC50 given Cc1cccc(-n2nc(C(=O)Nc3ccc(N4CCN(C)CC4)cc3)cc2-c2ccc3ncnn3c2)n1 [Example 107] as the entry.
// result 10 to 100 nM

// query Fill in IC50 for record Cc1cccc(-n2nc(C(=O)Nc3ccc(F)cc3)cc2-c2ccc3ncnn3c2)n1 [Example 126]
// result ~10 nM

// query Write down IC50 measured for item Cc1cccc(-n2nc(C(=O)Nc3nccs3)cc2-c2ccc3ncsc3c2)n1 [Example 75]
// result 7.4 nM

// query Tell us which IC50 value is on record for Cc1cccc(-n2nc(C(=O)Nc3ccc(S(C)(=N)=O)cc3)cc2-c2ccc3ncnn3c2)n1 (stereo not drawn) [Example 149]
// result 7.7 nM

// query Output measured IC50 for this item: Cc1cccc(-n2nc(C(=O)Nc3ccc(Br)cc3)cc2-c2ccc3ncsc3c2)n1 [Example 34]
// result 10 to 100 nM

// query Consider the compound COc1ccc(NC(=O)c2cc(-c3ccc4ncsc4c3)n(-c3cccc(C)n3)n2)cn1 [Example 65] and give its recorded IC50.
// result < 10 nM

// query Give me measured IC50, please, for this compound: Cc1cccc(-n2nc(C(=O)Nc3ccc(F)c(Cl)c3)cc2-c2ccc3ncnn3c2)n1 [Example 140]
// result ~10 nM
